# key: entry, value: Emax of OD450 nm binding value
Target: human DLL4 protein (Acro, Cat. No. DL4-H5227) (human) (UniProt Q9NR61)
Sequence (Q9NR61 27-524 limits assumed): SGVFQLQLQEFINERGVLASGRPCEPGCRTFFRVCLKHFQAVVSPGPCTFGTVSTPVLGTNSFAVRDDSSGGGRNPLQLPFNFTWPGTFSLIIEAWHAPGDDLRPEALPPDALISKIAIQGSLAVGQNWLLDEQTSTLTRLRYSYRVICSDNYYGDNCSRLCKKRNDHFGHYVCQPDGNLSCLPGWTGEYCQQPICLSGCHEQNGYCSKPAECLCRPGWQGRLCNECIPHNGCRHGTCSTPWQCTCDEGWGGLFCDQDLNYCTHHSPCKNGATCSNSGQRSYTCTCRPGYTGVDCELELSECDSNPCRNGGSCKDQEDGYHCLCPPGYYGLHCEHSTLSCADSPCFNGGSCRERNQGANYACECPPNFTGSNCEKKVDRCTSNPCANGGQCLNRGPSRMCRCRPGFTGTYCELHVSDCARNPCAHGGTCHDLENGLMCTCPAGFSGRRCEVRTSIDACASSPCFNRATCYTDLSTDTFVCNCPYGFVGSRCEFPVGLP
Test: ELISA, coated hDLL4; maximum over 0.1, 1, 10, 100 nM antibody
# number only, unit OD450 nm dropped from output

Consider the reported Emax of OD450 nm binding value for these binders:
Binder | Emax of OD450 nm binding value, OD450 nm
Hab008L1H2a-hFc (scFv, part only; not given: VL-VH linker and human IgG1 Fc, V domains shown, not shown: another chain or arm of the molecule; a dimerising Fc or GST; small tags and cut ends) VL: DIQMTQSPSSLSASVGDRVTITCKASQNVGTAVAWYQQKPGKSPKLLIFSASIRYTGVPSRFSGSGSGTDFTLTISSLQPEDFATYYCQQYSSSPYTFGGGTKVEIK VH: EVQLVQSGAEVKKPGASVKVSCKASGYTFTDYYMNWVRQAPGQRLEWMGIINPYNSGTSYNQKFRGRVTLTVDKSASTAYMELSSLRSEDTAVYYCSRYDYDYDVEGAMDYWGQGTTVTVSS | 0.07
Hab008L1H5-hFc (scFv, part only; not given: VL-VH linker and human IgG1 Fc, V domains shown, not shown: another chain or arm of the molecule; a dimerising Fc or GST; small tags and cut ends) VL: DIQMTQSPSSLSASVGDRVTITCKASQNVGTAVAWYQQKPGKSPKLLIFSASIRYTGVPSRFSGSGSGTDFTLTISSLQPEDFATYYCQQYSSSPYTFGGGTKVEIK VH: EVQLVQSGAEVKKPGASVKVSCKASGYTFTDYYMNWVRRAPGQRLEWMGIINPYNGGTSYNQKFRGRVTITVDKSASTAYMELSSLRSEDTAVYYCSRYDYDYDVEGAMDYWGQGTTVTVSS | 0.69
Hab006VL1VH4-hFc (scFv, part only; not given: VL-VH linker and human IgG1 Fc, V domains shown, not shown: another chain or arm of the molecule; a dimerising Fc or GST; small tags and cut ends) VL: DIQMTQSPSSLSASVGDRVTITCRATKSISKYLAWYQQKPGKAPKLLIFSGSTLQSGVPSRFSGSGSGTDFTLTISSLQPEDFATYYCQQHHEYPYTFGGGTKVEIK VH: EVQLVQSGAEVKKPGASVKVSCKASGYTFTSYWMHWVRQAPGQRLEWMGVIDPSDSLANYNQEFKGRVTLTVDTSSSTAYMELSSLRSEDTAVYYCARDSTVVAPMDYWGQGTTVTVSS | 0.15

IN: Can you look up the measured Emax of OD450 nm binding value of Hab006VL4VH1-hFc (scFv, part only; not given: scFv linker and human IgG1 Fc, V domains shown, not shown: another chain or arm of the molecule; a dimerising Fc or GST; small tags and cut ends) VL: DIVMTQSPDSLAVSLGERATINCRATKSISKYLAWYQQKPGQTNKLLIFSGSTLQSGVPDRFSGSGSGTDFTLTISSLQAEDVAVYYCQQHHEYPYTFGGGTKVEIK VH: EVQLVQSGAEVKKPGASVKVSCKASGYTFTSYWMHWVRQAPGQRLEWMGVIDPSDSLANYNQEFKGRVTITVDTSASTAYMELSSLRSEDTAVYYCARDSTVVAPMDYWGQGTTVTVSS for me?
OUT: 0.08
